Values from ChEMBL document CHEMBL1134615

target: Macrophage metalloelastase (Homo sapiens); test: In Vitro inhibitory activity against the catalytic domain of the matrix metalloprotease-12
Sequence (P39900 whole entry, the tested form may be a part): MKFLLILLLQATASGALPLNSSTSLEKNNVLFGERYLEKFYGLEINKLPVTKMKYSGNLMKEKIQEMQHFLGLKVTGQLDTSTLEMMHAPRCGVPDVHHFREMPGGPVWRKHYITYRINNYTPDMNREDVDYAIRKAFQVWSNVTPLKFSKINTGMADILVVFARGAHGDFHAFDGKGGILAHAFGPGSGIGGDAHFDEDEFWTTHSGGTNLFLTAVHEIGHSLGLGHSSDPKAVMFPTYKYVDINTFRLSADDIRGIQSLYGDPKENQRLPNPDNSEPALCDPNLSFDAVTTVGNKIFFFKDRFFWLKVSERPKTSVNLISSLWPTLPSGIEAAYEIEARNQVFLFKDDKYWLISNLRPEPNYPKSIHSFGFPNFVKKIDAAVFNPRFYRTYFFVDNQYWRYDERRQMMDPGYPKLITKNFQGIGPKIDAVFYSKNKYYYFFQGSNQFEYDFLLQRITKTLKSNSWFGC
measured property: pKi
Numbers only, as −log10 of the molar value.

Look over these answered cases.
[
  {
    "chemical smiles": "C[C@H](NS(=O)(=O)c1ccccc1)C(=O)NC1=NN=C(c2ccc(Br)cc2)CS1",
    "recorded result": 6.36
  },
  {
    "chemical smiles": "C[C@@H](NS(=O)(=O)c1ccccc1)C(=O)NC1=NN=C(c2ccc(Br)cc2)CS1",
    "recorded result": 6.47
  },
  {
    "chemical smiles": "CC(C)[C@@H](NS(=O)(=O)c1ccccc1)C(=O)NC1=NN=C(c2ccc(Cl)cc2)CS1",
    "recorded result": 6.46
  },
  {
    "chemical smiles": "C[C@@H](NS(=O)(=O)c1ccccc1)C(=O)NC1=NN=C(c2ccc(Cl)cc2)CS1",
    "recorded result": 6.49
  }
]

Please look at the items below and tell me pKi for each one, in order.
1. C[C@H](NS(=O)(=O)c1ccccc1)C(=O)NC1=NN=C(c2ccc([N+](=O)[O-])cc2)CS1
2. C[C@H](NS(=O)(=O)Cc1ccccc1)C(=O)NC1=NN=C(c2ccc(Cl)cc2)CS1
3. C[C@H](NS(=O)(=O)c1ccccc1)C(=O)NC1=NN=C(c2ccc(F)cc2)CS1

1: 6.55; 2: 6.32; 3: 6.55

Please look at the items below and tell me pKi for each one, in order.
1. Cc1ccc(C2=NN=C(NC(=O)[C@@H](C)NS(=O)(=O)c3ccccc3)SC2)cc1
2. C[C@@H](NS(=O)(=O)c1ccccc1)C(=O)NC1=NN=C(c2ccc(C#N)cc2)CS1
3. C[C@H](NS(=O)(=O)c1cccs1)C(=O)NC1=NN=C(c2ccc(Cl)cc2)CS1
4. Cc1ccc(C2=NN=C(NC(=O)[C@H](C)NS(=O)(=O)c3ccccc3)SC2)cc1

[7.05, 6.44, 6.44, 6.96]

Please look at the items below and tell me pKi for each one, in order.
1. C[C@@H](NS(=O)(=O)c1ccccc1)C(=O)NC1=NN=C(c2ccc(F)cc2)CS1
2. C[C@H](NS(=O)(=O)c1ccccc1)C(=O)NC1=NN=C(c2ccc(C#N)cc2)CS1
3. CC(C)[C@H](NS(=O)(=O)c1ccccc1)C(=O)NC1=NN=C(c2ccc(Cl)cc2)CS1
4. C[C@H](NS(=O)(=O)c1ccccc1)C(=O)NC1=NN=C(c2ccc(Cl)cc2)CS1
5. COc1ccc(C2=NN=C(NC(=O)[C@H](C)NS(=O)(=O)c3ccccc3)SC2)cc1
6. C[C@H](NS(=O)(=O)c1ccccc1)C(=O)NC1=NN=C(c2ccc(C(F)(F)F)cc2)CS1

6.46
6.43
6.42
6.28
6.47
6.52

###

molecular target: Matrix metalloproteinase-14 (Homo sapiens, UniProt P50281); experiment: In vitro inhibitory activity against the catalytic domain of human matrix metalloprotease-14
measured property: Ki (µM)
One number for each entry, in µM.

Look over these answered cases.
[
  {
    "chemical smiles": "C[C@H](NS(=O)(=O)c1ccccc1)C(=O)NC1=NN=C(c2ccc(Cl)cc2)CS1",
    "Ki / µM": 0.1
  },
  {
    "chemical smiles": "COc1ccc(C2=NN=C(NC(=O)[C@H](C)NS(=O)(=O)c3ccccc3)SC2)cc1",
    "Ki / µM": 0.59
  },
  {
    "chemical smiles": "C[C@H](NS(=O)(=O)c1ccccc1)C(=O)NC1=NN=C(C23CC4CC(CC(C4)C2)C3)CS1",
    "Ki / µM": 3.07
  },
  {
    "chemical smiles": "C[C@H](NS(=O)(=O)c1ccccc1)C(=O)NC1=NN=C(c2ccc(Cl)s2)CS1",
    "Ki / µM": 0.32
  },
  {
    "chemical smiles": "CC(C)[C@H](NS(=O)(=O)c1ccccc1)C(=O)NC1=NN=C(c2ccc(Cl)cc2)CS1",
    "Ki / µM": 0.74
  },
  {
    "chemical smiles": "Cc1ccc(C2=NN=C(NC(=O)[C@@H](C)NS(=O)(=O)c3ccccc3)SC2)cc1",
    "Ki / µM": 0.29
  },
  {
    "chemical smiles": "CC(C)(NS(=O)(=O)c1ccccc1)C(=O)NC1=NN=C(c2ccc(Cl)cc2)CS1",
    "Ki / µM": 0.15
  },
  {
    "chemical smiles": "C[C@H](NS(=O)(=O)Cc1ccccc1)C(=O)NC1=NN=C(c2ccc(Cl)cc2)CS1",
    "Ki / µM": 0.19
  },
  {
    "chemical smiles": "C[C@H](NS(=O)(=O)c1cccs1)C(=O)NC1=NN=C(c2ccc(Cl)cc2)CS1",
    "Ki / µM": 0.25
  },
  {
    "chemical smiles": "C[C@H](NS(=O)(=O)c1ccccc1)C(=O)NC1=NN=C(c2ccc(C(F)(F)F)cc2)CS1",
    "Ki / µM": 0.58
  }
]

Please look at the items below and tell me Ki for each one, in order.
1. C[C@@H](NS(=O)(=O)c1ccccc1)C(=O)NC1=NN=C(c2ccc(F)cc2)CS1
2. CC(C)[C@@H](NS(=O)(=O)c1ccccc1)C(=O)NC1=NN=C(c2ccc(Cl)cc2)CS1
3. C[C@H](NS(=O)(=O)c1ccccc1)C(=O)NC1=NN=C(c2ccc(F)cc2)CS1
4. C[C@H](NS(=O)(=O)c1ccccc1)C(=O)NC1=NN=C(c2ccc([N+](=O)[O-])cc2)CS1

1. 0.39
2. 0.59
3. 0.44
4. 0.29

Name the recorded Ki for Cc1ccc(C2=NN=C(NC(=O)[C@H](C)NS(=O)(=O)c3ccccc3)SC2)cc1 .
0.38

###

molecular target: Neutrophil collagenase (Homo sapiens); test: Inhibitory activity against matrix metalloprotease-8
Sequence (P22894 whole entry): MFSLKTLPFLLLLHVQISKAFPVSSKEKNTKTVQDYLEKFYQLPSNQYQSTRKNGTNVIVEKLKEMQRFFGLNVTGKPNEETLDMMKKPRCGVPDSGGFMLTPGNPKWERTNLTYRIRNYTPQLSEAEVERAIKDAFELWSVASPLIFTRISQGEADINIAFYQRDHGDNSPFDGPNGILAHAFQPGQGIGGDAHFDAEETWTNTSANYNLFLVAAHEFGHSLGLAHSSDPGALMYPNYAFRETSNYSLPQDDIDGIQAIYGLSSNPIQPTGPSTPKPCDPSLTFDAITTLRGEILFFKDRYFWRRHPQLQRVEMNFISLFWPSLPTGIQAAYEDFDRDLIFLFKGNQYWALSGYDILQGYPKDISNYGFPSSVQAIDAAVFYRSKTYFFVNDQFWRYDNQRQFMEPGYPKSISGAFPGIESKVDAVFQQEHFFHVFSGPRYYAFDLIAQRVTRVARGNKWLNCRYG
# MET = Ki below 200 nM (exclusive); NOT MET = Ki at/above 200 nM

Take a look at these entries with their results.
[
  {
    "chemical smiles": "C[C@@H](NS(=O)(=O)c1ccccc1)C(=O)NC1=NN=C(c2ccc(Br)cc2)CS1",
    "class name": "NOT MET"
  },
  {
    "chemical smiles": "C[C@H](NS(=O)(=O)c1ccccc1)C(=O)NC1=NN=C(c2ccc(C#N)cc2)CS1",
    "class name": "NOT MET"
  },
  {
    "chemical smiles": "C[C@@H](NS(=O)(=O)c1ccccc1)C(=O)NC1=NN=C(c2ccc(Cl)cc2)CS1",
    "class name": "MET"
  }
]

# input for lookup
A record lists C[C@H](NS(=O)(=O)c1cccs1)C(=O)NC1=NN=C(c2ccc(Cl)cc2)CS1 . Is its Ki below 200 nM?
MET

###

biological target: 72 kDa type IV collagenase (Homo sapiens)
Sequence (P08253 whole entry): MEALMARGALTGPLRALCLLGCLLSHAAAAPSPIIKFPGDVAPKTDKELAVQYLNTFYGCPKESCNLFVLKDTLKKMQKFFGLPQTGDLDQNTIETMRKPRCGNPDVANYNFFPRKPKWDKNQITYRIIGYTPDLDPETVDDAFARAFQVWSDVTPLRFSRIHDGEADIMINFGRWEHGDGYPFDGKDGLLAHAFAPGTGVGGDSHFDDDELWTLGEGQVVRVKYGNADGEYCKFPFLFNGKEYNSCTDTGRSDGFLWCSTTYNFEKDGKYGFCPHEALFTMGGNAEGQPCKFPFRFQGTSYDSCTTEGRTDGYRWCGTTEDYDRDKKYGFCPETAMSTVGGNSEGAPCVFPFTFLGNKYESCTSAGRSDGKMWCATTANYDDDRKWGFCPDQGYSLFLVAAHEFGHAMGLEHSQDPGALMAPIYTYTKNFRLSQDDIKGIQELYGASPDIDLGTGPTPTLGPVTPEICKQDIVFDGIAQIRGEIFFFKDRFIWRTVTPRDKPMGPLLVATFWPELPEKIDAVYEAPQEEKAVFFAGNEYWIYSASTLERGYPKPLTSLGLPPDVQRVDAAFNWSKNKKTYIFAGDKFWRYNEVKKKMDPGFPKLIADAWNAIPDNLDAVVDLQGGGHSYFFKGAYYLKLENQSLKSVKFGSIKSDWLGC
# Satisfied = Ki below 300 nM (exclusive); Not satisfied = Ki at/above 300 nM

Take a look at these entries with their results.
[
  {
    "chemical smiles": "C[C@@H](NS(=O)(=O)c1ccccc1)C(=O)NC1=NN=C(c2ccc(F)cc2)CS1",
    "target of assay": "72 kDa type IV collagenase (Homo sapiens)",
    "class name": "Not satisfied"
  },
  {
    "chemical smiles": "Cc1ccc(C2=NN=C(NC(=O)[C@@H](C)NS(=O)(=O)c3ccccc3)SC2)cc1",
    "target of assay": "72 kDa type IV collagenase (Homo sapiens)",
    "class name": "Not satisfied"
  },
  {
    "chemical smiles": "C[C@H](NS(=O)(=O)c1ccccc1)C(=O)NC1=NN=C(c2ccc(Cl)s2)CS1",
    "target of assay": "72 kDa type IV collagenase (Homo sapiens)",
    "class name": "Not satisfied"
  },
  {
    "chemical smiles": "C[C@H](NS(=O)(=O)c1ccccc1)C(=O)NC1=NN=C(c2ccc(Br)cc2)CS1",
    "target of assay": "72 kDa type IV collagenase (Homo sapiens)",
    "class name": "Satisfied"
  },
  {
    "chemical smiles": "C[C@H](NS(=O)(=O)c1ccccc1)C(=O)NC1=NN=C(c2ccc(Cl)cc2)CS1",
    "target of assay": "72 kDa type IV collagenase (Homo sapiens)",
    "class name": "Satisfied"
  },
  {
    "chemical smiles": "CC(C)[C@H](NS(=O)(=O)c1ccccc1)C(=O)NC1=NN=C(c2ccc(Cl)cc2)CS1",
    "target of assay": "72 kDa type IV collagenase (Homo sapiens)",
    "class name": "Not satisfied"
  },
  {
    "chemical smiles": "C[C@H](NS(=O)(=O)c1ccccc1)C(=O)NC1=NN=C(c2ccc(F)cc2)CS1",
    "target of assay": "72 kDa type IV collagenase (Homo sapiens)",
    "class name": "Not satisfied"
  },
  {
    "chemical smiles": "C[C@@H](NS(=O)(=O)c1ccccc1)C(=O)NC1=NN=C(c2ccc(Cl)cc2)CS1",
    "target of assay": "72 kDa type IV collagenase (Homo sapiens)",
    "class name": "Not satisfied"
  }
]

A record lists Cc1ccc(C2=NN=C(NC(=O)[C@H](C)NS(=O)(=O)c3ccccc3)SC2)cc1 . Is its Ki below 300 nM?
Not satisfied

A record lists C[C@H](NS(=O)(=O)c1ccccc1)C(=O)NC1=NN=C(C23CC4CC(CC(C4)C2)C3)CS1 . Is its Ki below 300 nM?
Not satisfied

A record lists CC(C)[C@@H](NS(=O)(=O)c1ccccc1)C(=O)NC1=NN=C(c2ccc(Cl)cc2)CS1 . Is its Ki below 300 nM?
Not satisfied

A record lists C[C@@H](NS(=O)(=O)c1ccccc1)C(=O)NC1=NN=C(c2ccc(Br)cc2)CS1 . Is its Ki below 300 nM?
Satisfied

A record lists C[C@H](NS(=O)(=O)Cc1ccccc1)C(=O)NC1=NN=C(c2ccc(Cl)cc2)CS1 . Is its Ki below 300 nM?
Satisfied

A record lists C[C@H](NS(=O)(=O)c1ccccc1)C(=O)NC1=NN=C(c2ccc(C#N)cc2)CS1 . Is its Ki below 300 nM?
Satisfied

A record lists C[C@@H](NS(=O)(=O)c1ccccc1)C(=O)NC1=NN=C(c2ccc(C#N)cc2)CS1 . Is its Ki below 300 nM?
Satisfied

A record lists C[C@H](NS(=O)(=O)c1cccs1)C(=O)NC1=NN=C(c2ccc(Cl)cc2)CS1 . Is its Ki below 300 nM?
Not satisfied
